# Lookup of reported TGI keyed by entry
- Tested on: K-562 leukemia
- assay.name: NCI tumour cell line growth inhibition, 48 h

// known answers, use as guide
compound.smiles	assay.target	TGI
CCOC(=O)C1=C(C)N(NC(=O)Nc2ccccc2)C(=O)C1=P(c1ccccc1)(c1ccccc1)c1ccccc1	K-562 leukemia	> 100 µM
NC(N)=N/N=C/c1c[nH]c2ccccc12	K-562 leukemia	> 100 µM

Next item in the queue.
q: // lookup TGI for "c1ccc(CNn2nnc3ccccc32)cc1"
a: > 100 µM

###

- Tested on: M14 melanoma
- assay.name: NCI tumour cell line growth inhibition, 48 h; in the data active means GI50 below about 0.43 µM; inactive means the rest
Would you mind answering with one of these outcomes? class 1 (active), class 0 (inactive)

q: Call for entry "COc1nc2ccccc2cc1-c1nc2c(cnn2-c2ccc(Br)cc2)c(=O)[nH]1" :
a: class 1

q: Call for entry "COc1ccc(Nc2c3ccccc3nc3occc23)cc1" :
a: class 0

q: Call for entry "O=C(N/N=C/c1ccc(Cl)cc1)c1ccc(C(F)(F)F)nc1Nc1cccc(C(F)(F)F)c1" :
a: class 0

q: Call for entry "N=C1C(c2nc3ccccc3s2)=C(O)CN1c1cc(C(F)(F)F)ccc1Cl" :
a: class 0

###

- Tested on: NCI-H23 lung
- assay.name: NCI tumour cell line growth inhibition, 48 h
test.readout: TGI

compound	TGI
c1ccc(CNn2nnc3ccccc32)cc1	> 100 µM
Cc1ccc(N=Nc2c(O)ccc3cc(S(=O)(=O)O)cc(S(=O)(=O)O)c23)cc1	> 100 µM
Cc1ccc(C(=O)CN(/C=C/C(=O)C(F)(F)F)c2ccc(S(N)(=O)=O)cc2)cc1	> 100 µM
COc1cc(C2C(Cl)C(=O)N2NC(=O)c2ccc(NC(C)=O)cc2)cc(OC)c1OC (configuration not stated)	> 100 µM
COc1cc(/C=C(\C#N)C(N)=O)cc(Br)c1O	> 100 µM
COc1ccc(Cn2cc3c(c2-c2ccccc2)CC(C)(C)c2cnoc2-3)cc1	> 100 µM

q: // lookup TGI for "COc1ccc(C(=C(Cl)c2ccccc2)c2ccc(OC)cc2)cc1"
a: > 100 µM

q: // lookup TGI for "COc1cc2nc3cc([N+](=O)[O-])ccc3c(NCCCNCCO)c2cc1OC"
a: 0.616 µM

q: // lookup TGI for Cc1ccc(SCC(CF)OC(C)n2cnc3c(=O)[nH]c(N)nc32)cc1 (configuration not stated)
a: > 100 µM

q: // lookup TGI for "CN(C)C(=O)c1cc2cnc(Nc3ccc(-c4csc5c(=S)cc(N6CCOCC6)oc45)cc3)nc2n1C1CCCC1"
a: > 19.5 µM

q: // lookup TGI for Cn1c2c(c3ccccc31)CC1c3c(c4ccccc4n3C)CC21 (configuration not stated)
a: > 100 µM

q: // lookup TGI for "CC1(C)C(=O)N(CCCCCCN2C(=O)C(C)(C)c3ccccc32)c2ccccc21"
a: > 100 µM

###

- System: SR leukemia
- assay.name: NCI tumour cell line growth inhibition, 48 h
test.readout: TGI

// known answers, use as guide
compound	TGI
COc1cccc2c1C(=O)c1c(O)c3c(c(O)c1C2=O)C[C@@](O)(C(C)=O)C[C@@H]3OC1OC(C)C(O)C(N)C1Br (stereo partly specified)	0.0185 µM
COc1cc(C(=O)N(Cc2cccnc2)C(=S)N(Cc2cccnc2)C(=O)c2cc(OC)c(OC)c(OC)c2)cc(OC)c1OC	> 100 µM
CCOC(=O)c1nc2ccc(C(F)(F)F)cc2nc1NCc1cc(OC)c(OC)c(OC)c1	48.5 µM
CCN(CC)C(=S)N/N=C(/C)c1cccc(/C(C)=N\NC(=S)N(CC)CC)n1	2.4 µM
Oc1cccnc1CN1CCCCC1	> 100 µM

q: // lookup TGI for "O=C1CCN2C(=O)CCN12"
a: > 100 µM

q: // lookup TGI for "O=C1OC(c2ccccc2)=N/C1=C\c1cccc2ccccc12"
a: > 100 µM

q: // lookup TGI for O=C1CSC(c2cccc(Oc3ccccc3)c2)N1c1ccc(Cl)cc1 (stereo unspecified)
a: 46.9 µM

q: // lookup TGI for "CN1CCC(O)(C(C)(C)C)CC1"
a: > 100 µM

The origin of these recorded values is PubChem BioAssay (NCI).
